assay_target: α1β3γ2 GABAA/BzR (Homo sapiens, UniProt P14867+P18507)
method_notes: Competition binding to HEK cell membranes, α1β3γ2
Set-up: expressed in transfected cells
conditions: Ki α1
pKi: −log10 of the molar value.
Recorded pKi by entry
property: pKi

compound="C#Cc1ccc2c(c1)C(=O)N(C)Cc1c(C(=O)OCC)ncn1-2 [RY-080 C17H15N3O3]" property=pKi comparator== val=7.55
compound="C[Si](C)(C)C#Cc1ccc2[nH]c3cnc(C(=O)OCC(F)(F)F)cc3c2c1 [WY-B-25]" property=pKi comparator== val=8.12
compound="C#Cc1ccc2[nH]c3cnc(C(=O)OCC(F)(F)F)cc3c2c1 [WY-B-26-2]" property=pKi comparator== val=8.35
compound="CC(C)(C)OC(=O)c1cc2c(cn1)[nH]c1ccc(C(C)(C)C)cc12 [CM-A82a]" property=pKi comparator== val=8.56
compound="O=C1C2C=Nc3ccccc3C2=NN1c1ccc(Cl)cc1 (stereo not shown) [CGS9896, reference compound]" property=pKi comparator== val=9.55
compound="CC(C)(C)OC(=O)c1cc2c(cn1)[nH]c1ccc(F)cc12 [CM-A87]" property=pKi comparator== val=8.79
compound="C#Cc1ccc2c(c1)C(=O)N1CCC1c1c(-c3ocnc3C(=O)OCC)ncn1-2 (stereo not shown) [RY-069]" property=pKi comparator== val=6.16
compound="CC(C)(C)OC(=O)c1cc2c(cn1)[nH]c1ccccc12 [BCCt]" property=pKi comparator== val=10.52
compound="C#Cc1ccc2c(c1)C(=O)N(C)Cc1c(C(=O)OCCCCCOC(=O)c3ncn4c3CN(C)C(=O)c3cc(C#C)ccc3-4)ncn1-2 [compound 56]" property=pKi comparator== val=6.64
compound="C#Cc1ccc2c(c1)C(=O)N(C)Cc1c(C(=O)OCCCOC(=O)c3ncn4c3CN(C)C(=O)c3cc(C#C)ccc3-4)ncn1-2 [XLi-093 (4)]" property=pKi comparator=< val=6.00
